As shown below, each of these sequences has a reported shrunken log2 fold change value.
Test system: Escherichia coli TOP10
TEST_SUMMARY: shrunken log2 fold change of peptide-encoding DNA abundance (4.5 h post-induction vs induction); higher = less antimicrobial activity (less host growth inhibition)
CONDITION_INFO: time post-induction: 4.5 h; library: site-saturation at positions 5, 18, 19, 20

| SEQUENCE_CHAIN | shrunken log2 fold change |
| --- | --- |
| RRIRIRPPRLPRPRPRPSANPRP | -0.15 |
| RRIRARPPRLPRPRPRPFYLPRP | -0.515 |
| RRIRYRPPRLPRPRPRPVHIPRP | -0.526 |

Challenge: Need shrunken log2 fold change of `RRIRYRPPRLPRPRPRPRSKPRP` , thanks.
Response given: -0.439

Challenge: Need shrunken log2 fold change of `RRIRPRPPRLPRPRPRPQEWPRP` , thanks.
Response given: 0.0248

Challenge: Need shrunken log2 fold change of `RRIRQRPPRLPRPRPRPKMEPRP` , thanks.
Response given: -0.0177

Challenge: Need shrunken log2 fold change of `RRIRVRPPRLPRPRPRPHIYPRP` , thanks.
Response given: -0.519

Challenge: Need shrunken log2 fold change of `RRIRERPPRLPRPRPRPTYNPRP` , thanks.
Response given: -0.908

Challenge: Need shrunken log2 fold change of `RRIRFRPPRLPRPRPRPVCYPRP` , thanks.
Response given: -0.495

Challenge: Need shrunken log2 fold change of `RRIRTRPPRLPRPRPRPWKQPRP` , thanks.
Response given: 0.0162

---

Tested on: Escherichia coli TOP10
TEST_SUMMARY: shrunken log2 fold change of peptide-encoding DNA abundance (4.5 h post-induction vs induction); higher = less antimicrobial activity (less host growth inhibition)
CONDITION_INFO: time post-induction: 4.5 h; library: site-saturation at positions 5, 18, 19, 20
As shown below, each of these sequences has a reported shrunken log2 fold change value.
No unit in the answer, only the number.

Reference set (5 entries):
| SEQUENCE_CHAIN | READOUT_NUMBER |
| --- | --- |
| RRIRERPPRLPRPRPRPSRLPRP | 0.0431 |
| RRIRSRPPRLPRPRPRPHRTPRP | -0.0768 |
| RRIRWRPPRLPRPRPRPMYIPRP | -0.144 |
| RRIRTRPPRLPRPRPRPVPCPRP | -0.0501 |
| RRIRERPPRLPRPRPRPDVDPRP | 0.0225 |

Challenge: Need shrunken log2 fold change of `RRIRVRPPRLPRPRPRPSFRPRP` , thanks.
Response given: -0.42

Challenge: Need shrunken log2 fold change of `RRIRTRPPRLPRPRPRPLMIPRP` , thanks.
Response given: -0.0131

---

Test system: Escherichia coli TOP10
TEST_SUMMARY: shrunken log2 fold change of peptide-encoding DNA abundance (4.5 h post-induction vs induction); higher = less antimicrobial activity (less host growth inhibition)
CONDITION_INFO: time post-induction: 4.5 h; library: site-saturation at positions 5, 18, 19, 20
Param threshold (-0.001) applies to shrunken log2 fold change; output 1 when value >= threshold, 0 when value < threshold.

Example results:
| SEQUENCE_CHAIN | TARGET_UNDER_TEST | ASSIGNED_CATEGORY |
| --- | --- | --- |
| RRIRARPPRLPRPRPRPATHPRP | Escherichia coli TOP10 | 1 |
| RRIRWRPPRLPRPRPRPLLNPRP | Escherichia coli TOP10 | 1 |
| RRIRGRPPRLPRPRPRPFKYPRP | Escherichia coli TOP10 | 0 |
| RRIRHRPPRLPRPRPRPFEQPRP | Escherichia coli TOP10 | 0 |
| RRIRHRPPRLPRPRPRPSCYPRP | Escherichia coli TOP10 | 0 |

Challenge: Determine whether measured shrunken log2 fold change meets or exceeds -0.001 for `RRIRERPPRLPRPRPRPRVMPRP`
Response given: 0

Challenge: Determine whether measured shrunken log2 fold change meets or exceeds -0.001 for `RRIRRRPPRLPRPRPRPHVFPRP`
Response given: 1

Challenge: Determine whether measured shrunken log2 fold change meets or exceeds -0.001 for `RRIRDRPPRLPRPRPRPGRKPRP`
Response given: 1

Challenge: Determine whether measured shrunken log2 fold change meets or exceeds -0.001 for `RRIRTRPPRLPRPRPRPKDIPRP`
Response given: 0

Challenge: Determine whether measured shrunken log2 fold change meets or exceeds -0.001 for `RRIRDRPPRLPRPRPRPMCLPRP`
Response given: 1

Challenge: Determine whether measured shrunken log2 fold change meets or exceeds -0.001 for `RRIRNRPPRLPRPRPRPEFSPRP`
Response given: 1

Challenge: Determine whether measured shrunken log2 fold change meets or exceeds -0.001 for `RRIRRRPPRLPRPRPRPHWMPRP`
Response given: 1

Challenge: Determine whether measured shrunken log2 fold change meets or exceeds -0.001 for `RRIRARPPRLPRPRPRPMMVPRP`
Response given: 1

Challenge: Determine whether measured shrunken log2 fold change meets or exceeds -0.001 for `RRIRHRPPRLPRPRPRPPVKPRP`
Response given: 1

Challenge: Determine whether measured shrunken log2 fold change meets or exceeds -0.001 for `RRIRSRPPRLPRPRPRPGPEPRP`
Response given: 1

---

As shown below, each of these sequences has a reported shrunken log2 fold change value.
Tested on: Escherichia coli TOP10
TEST_SUMMARY: shrunken log2 fold change of peptide-encoding DNA abundance (4.5 h post-induction vs induction); higher = less antimicrobial activity (less host growth inhibition)
CONDITION_INFO: time post-induction: 4.5 h; library: site-saturation at positions 5, 18, 19, 20
No unit in the answer, only the number.

Reference set (5 entries):
| SEQUENCE_CHAIN | VALUE_TYPE | READOUT_NUMBER |
| --- | --- | --- |
| RRIRQRPPRLPRPRPRPNQGPRP | shrunken log2 fold change | 0.084 |
| RRIRCRPPRLPRPRPRPPAHPRP | shrunken log2 fold change | 2.07 |
| RRIRFRPPRLPRPRPRPHEFPRP | shrunken log2 fold change | -0.0308 |
| RRIRYRPPRLPRPRPRPDPFPRP | shrunken log2 fold change | -0.206 |
| RRIRPRPPRLPRPRPRPNEKPRP | shrunken log2 fold change | 0.023 |

Challenge: Need shrunken log2 fold change of `RRIRCRPPRLPRPRPRPNCQPRP` , thanks.
Response given: -0.134

Challenge: Need shrunken log2 fold change of `RRIRGRPPRLPRPRPRPEAGPRP` , thanks.
Response given: 1.21

Challenge: Need shrunken log2 fold change of `RRIRPRPPRLPRPRPRPNWVPRP` , thanks.
Response given: -0.2

Challenge: Need shrunken log2 fold change of `RRIRFRPPRLPRPRPRPYARPRP` , thanks.
Response given: 0.0368

Challenge: Need shrunken log2 fold change of `RRIRRRPPRLPRPRPRPDYIPRP` , thanks.
Response given: -0.339

Challenge: Need shrunken log2 fold change of `RRIRTRPPRLPRPRPRPDIHPRP` , thanks.
Response given: -0.357

Challenge: Need shrunken log2 fold change of `RRIRCRPPRLPRPRPRPVTYPRP` , thanks.
Response given: 0.0559

Challenge: Need shrunken log2 fold change of `RRIRNRPPRLPRPRPRPMCFPRP` , thanks.
Response given: -0.114

Challenge: Need shrunken log2 fold change of `RRIRKRPPRLPRPRPRPDTAPRP` , thanks.
Response given: 0.154

Challenge: Need shrunken log2 fold change of `RRIRGRPPRLPRPRPRPYLQPRP` , thanks.
Response given: -0.182

---

System: Escherichia coli TOP10
TEST_SUMMARY: shrunken log2 fold change of peptide-encoding DNA abundance (4.5 h post-induction vs induction); higher = less antimicrobial activity (less host growth inhibition)
CONDITION_INFO: time post-induction: 4.5 h; library: site-saturation at positions 5, 18, 19, 20
VALUE_TYPE: shrunken log2 fold change

Reference set (5 entries):
| SEQUENCE_CHAIN | TARGET_UNDER_TEST | RESULT |
| --- | --- | --- |
| RRIRKRPPRLPRPRPRPVDLPRP | Escherichia coli TOP10 | -0.0854 |
| RRIRHRPPRLPRPRPRPNDRPRP | Escherichia coli TOP10 | -0.104 |
| RRIRHRPPRLPRPRPRPMTKPRP | Escherichia coli TOP10 | 0.0576 |
| RRIRSRPPRLPRPRPRPFAKPRP | Escherichia coli TOP10 | -0.136 |
| RRIRKRPPRLPRPRPRPLISPRP | Escherichia coli TOP10 | 0.0452 |

Now turn to the next sequence.
Challenge: Need shrunken log2 fold change of `RRIRDRPPRLPRPRPRPFMNPRP` , thanks.
Response given: -0.117

---

System: Escherichia coli TOP10;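 note: peptides expressed intracellularly from a pBAD plasmid library in pooled LB shake-flask culture, induced with 0.3% L-arabinose, DNA abundance read by NGS, three biological replicates, DESeq2 with apeglm shrinkage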
TEST_SUMMARY: shrunken log2 fold change of peptide-encoding DNA abundance (4.5 h post-induction vs induction); higher = less antimicrobial activity (less host growth inhibition)
CONDITION_INFO: time post-induction: 4.5 h; library: site-saturation at positions 5, 18, 19, 20
VALUE_TYPE: shrunken log2 fold change
No unit in the answer, only the number.

| SEQUENCE_CHAIN | shrunken log2 fold change |
| --- | --- |
| RRIRFRPPRLPRPRPRPCMFPRP | -0.556 |
| RRIRGRPPRLPRPRPRPTRRPRP | 0.663 |
| RRIRNRPPRLPRPRPRPEGYPRP | -0.169 |

Challenge: Need shrunken log2 fold change of `RRIRGRPPRLPRPRPRPLTTPRP` , thanks.
Response given: 1.82

Challenge: Need shrunken log2 fold change of `RRIRNRPPRLPRPRPRPLGPPRP` , thanks.
Response given: 0.0324

Challenge: Need shrunken log2 fold change of `RRIRARPPRLPRPRPRPHSWPRP` , thanks.
Response given: 0.475

Challenge: Need shrunken log2 fold change of `RRIRNRPPRLPRPRPRPRKPPRP` , thanks.
Response given: -0.0565

Challenge: Need shrunken log2 fold change of `RRIRVRPPRLPRPRPRPKPRPRP` , thanks.
Response given: 0.638
